Kindly supply the reported shrunken log2 fold change values for the records listed here.
# Tested on: Escherichia coli TOP10
# assay_overview: shrunken log2 fold change of peptide-encoding DNA abundance (4.5 h post-induction vs induction); higher = less antimicrobial activity (less host growth inhibition)
# test_settings: time post-induction: 4.5 h; library: site-saturation at positions 5, 18, 19, 20
Give bare numbers.

>  <seq_string>
RRIRIRPPRLPRPRPRPYDGPRP

>  <observed_value>
-0.0104

$$$$

Please state, for each entry, its recorded shrunken log2 fold change.
1. RRIRQRPPRLPRPRPRPLMCPRP
2. RRIRARPPRLPRPRPRPNCEPRP

A)
1: -0.0972; 2: 0.186

Please state, for each entry, its recorded shrunken log2 fold change.
1. RRIRWRPPRLPRPRPRPVAIPRP
2. RRIRIRPPRLPRPRPRPVWCPRP

A)
-0.0829
0.148

Please state, for each entry, its recorded shrunken log2 fold change.
1. RRIRCRPPRLPRPRPRPYDKPRP
2. RRIRSRPPRLPRPRPRPEFWPRP

A)
-0.985
0.281

Q) Using the record for RRIRMRPPRLPRPRPRPWEFPRP , state its measured shrunken log2 fold change.
A) 0.0443

* * *

# Test system: Escherichia coli TOP10
# assay_overview: shrunken log2 fold change of peptide-encoding DNA abundance (4.5 h post-induction vs induction); higher = less antimicrobial activity (less host growth inhibition)
# test_settings: time post-induction: 4.5 h; library: site-saturation at positions 5, 18, 19, 20
Response field class: string, computed from recorded shrunken log2 fold change by ranges LOW: < -0.2; MEDIUM: ≥ -0.2 and < 0.03; HIGH: ≥ 0.03

Q) Using the reported shrunken log2 fold change, which band applies to RRIRNRPPRLPRPRPRPKFNPRP ?
A) LOW

* * *

# System: Escherichia coli TOP10;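 also: peptides expressed intracellularly from a pBAD plasmid library in pooled LB shake-flask culture, induced with 0.3% L-arabinose, DNA abundance read by NGS, three biological replicates, DESeq2 with apeglm shrinkage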
# assay_overview: shrunken log2 fold change of peptide-encoding DNA abundance (4.5 h post-induction vs induction); higher = less antimicrobial activity (less host growth inhibition)
# test_settings: time post-induction: 4.5 h; library: site-saturation at positions 5, 18, 19, 20
criterion met means recorded shrunken log2 fold change is -0.07 or above; criterion not met means it is below -0.07.

Field: example entries. Status: answers known.
>  <seq_string>
RRIRLRPPRLPRPRPRPDEKPRP

>  <group>
criterion met

$$$$
>  <seq_string>
RRIRARPPRLPRPRPRPAPEPRP

>  <group>
criterion met

$$$$
>  <seq_string>
RRIRIRPPRLPRPRPRPCANPRP

>  <group>
criterion not met

$$$$

Q) Identify whether the reported shrunken log2 fold change of the following sequence is -0.07 or greater: RRIRWRPPRLPRPRPRPYWCPRP
A) criterion not met

Q) Identify whether the reported shrunken log2 fold change of the following sequence is -0.07 or greater: RRIRDRPPRLPRPRPRPQQCPRP
A) criterion met

Q) Identify whether the reported shrunken log2 fold change of the following sequence is -0.07 or greater: RRIRSRPPRLPRPRPRPVDLPRP
A) criterion not met

Q) Identify whether the reported shrunken log2 fold change of the following sequence is -0.07 or greater: RRIRTRPPRLPRPRPRPIWDPRP
A) criterion not met

Q) Identify whether the reported shrunken log2 fold change of the following sequence is -0.07 or greater: RRIRWRPPRLPRPRPRPYDCPRP
A) criterion met

Q) Identify whether the reported shrunken log2 fold change of the following sequence is -0.07 or greater: RRIRLRPPRLPRPRPRPQDYPRP
A) criterion not met

Q) Identify whether the reported shrunken log2 fold change of the following sequence is -0.07 or greater: RRIRVRPPRLPRPRPRPLSPPRP
A) criterion not met

Q) Identify whether the reported shrunken log2 fold change of the following sequence is -0.07 or greater: RRIRIRPPRLPRPRPRPLATPRP
A) criterion met

Q) Identify whether the reported shrunken log2 fold change of the following sequence is -0.07 or greater: RRIRARPPRLPRPRPRPAFHPRP
A) criterion not met

Q) Identify whether the reported shrunken log2 fold change of the following sequence is -0.07 or greater: RRIRDRPPRLPRPRPRPESSPRP
A) criterion met

Q) Identify whether the reported shrunken log2 fold change of the following sequence is -0.07 or greater: RRIRARPPRLPRPRPRPIHQPRP
A) criterion met

Q) Identify whether the reported shrunken log2 fold change of the following sequence is -0.07 or greater: RRIRIRPPRLPRPRPRPDQVPRP
A) criterion not met
